Listing of recorded IC50 by entry.
# Target under test: full-length SARM1 (FL-SARM1) (Homo sapiens, UniProt Q6SZW1)
# Sequence (Q6SZW1 28-724): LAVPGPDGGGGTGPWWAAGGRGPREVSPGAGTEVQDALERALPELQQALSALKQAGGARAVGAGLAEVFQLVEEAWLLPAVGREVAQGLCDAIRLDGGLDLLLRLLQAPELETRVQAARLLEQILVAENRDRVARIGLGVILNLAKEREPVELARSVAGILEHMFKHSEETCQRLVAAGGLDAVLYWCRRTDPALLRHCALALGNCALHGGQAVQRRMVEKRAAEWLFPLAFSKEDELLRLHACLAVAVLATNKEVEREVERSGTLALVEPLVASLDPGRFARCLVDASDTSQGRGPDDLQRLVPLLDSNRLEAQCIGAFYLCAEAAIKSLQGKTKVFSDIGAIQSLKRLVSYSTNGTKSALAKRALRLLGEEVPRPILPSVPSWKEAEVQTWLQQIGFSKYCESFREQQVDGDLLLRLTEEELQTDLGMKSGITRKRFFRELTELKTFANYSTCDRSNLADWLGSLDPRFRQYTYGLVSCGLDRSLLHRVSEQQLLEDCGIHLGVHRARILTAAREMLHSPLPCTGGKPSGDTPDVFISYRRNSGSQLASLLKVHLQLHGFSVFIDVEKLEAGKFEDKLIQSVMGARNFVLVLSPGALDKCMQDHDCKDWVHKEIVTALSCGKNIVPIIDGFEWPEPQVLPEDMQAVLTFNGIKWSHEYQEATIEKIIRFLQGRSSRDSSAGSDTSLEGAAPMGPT
# Experiment notes: FL-SARM1 cellular lysate assay (NAD/NADH-Glo detection of remaining NAD+, NMN-activated)
# Test context: Activity (μM) (IC50), 11 point curve
# unit: µM | format: bare number

Compound	IC50 (µM)
Cc1ccc(NC(=O)N2C3CCC2[C@@H](C)C3)cc1-c1ncc(F)cn1 (single isomer, unassigned) [Example 195]	0.3

# input Form field: reported IC50 of COC(C)[C@@]12CC(C[C@@H](C)C1)N2C(=O)Nc1ccc(C(F)(F)F)c(-c2nccnn2)c1 (single isomer, unassigned) [Example 211]
# output 0.004

# input What does the data say about its IC50? Entry: Cc1ccc(NC(=O)C(C)C2CCC2)cc1-c1cccnn1 (racemic)
# output 6.5

# input Entry Cc1ccc(NC(=O)C23CC(C(F)(F)F)(C2)C3)cc1-c1ccccn1 : reported IC50 = ?
# output 9.1

====

# Target under test: full-length SARM1 (FL-SARM1) (Homo sapiens)
# Experiment notes: FL-SARM1 cellular lysate assay (NAD/NADH-Glo detection of remaining NAD+, NMN-activated)
# Test context: Activity (μM) (IC50), 11 point curve
Param label: returns 1 when IC50 < 0.9 µM, returns 0 otherwise, including exact equality.

See these solved cases before continuing.
Compound	Category label
Cc1ccc(NC(=O)C2(C3CCC3)CC2)cc1-c1cccnn1	0
Cc1ccc(NC(=O)[C@@H]2C[C@@H]2C2CC2)cc1-c1cccnn1 (racemic)	0
Cc1ccc(NC(=O)N2CCCC2C2CC2)cc1-c1ccccn1 (racemic)	0
Cc1ccc(NC(=O)N2C3C[C@@H](C)C[C@@H]2C3)cc1-c1ncc(F)cn1	1

# input Dear colleague, could you confirm whether IC50 of O=C(Nc1ccc(C2CC2)c(-c2ccc(F)cn2)c1)[C@@H]1CC1(F)F falls below 0.9 µM? Thanks.
# output 0

# input Would you kindly verify if IC50 of Cc1cc(F)c(NC(=O)N2C3CCCC2C3)cc1-c1ccccn1 is strictly less than 0.9 µM?
# output 1

Source of measurements: patent US20250171462A1
